Provide the reported pIC50 of each item.
target: FP receptor (Homo sapiens (Human), UniProt P43088)
Sequence (P43088 whole entry): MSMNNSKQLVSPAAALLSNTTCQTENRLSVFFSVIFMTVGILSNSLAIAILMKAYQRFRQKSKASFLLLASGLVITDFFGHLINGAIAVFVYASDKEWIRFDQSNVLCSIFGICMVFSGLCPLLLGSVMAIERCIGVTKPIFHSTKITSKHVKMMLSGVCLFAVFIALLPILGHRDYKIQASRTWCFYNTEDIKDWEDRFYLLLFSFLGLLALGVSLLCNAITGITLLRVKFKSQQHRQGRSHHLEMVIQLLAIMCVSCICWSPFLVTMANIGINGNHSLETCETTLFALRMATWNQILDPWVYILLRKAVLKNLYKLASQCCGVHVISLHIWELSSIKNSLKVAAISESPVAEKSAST
measurement.description: In vitro test of inhibition of human FP receptor activity (PGF2α-induced calcium flux in FP-expressing CHEM1 cells)
condition.details: PGF2α-induced (2 nM) calcium flux in FP-expressing CHEM1 cells; some as mean values from multiple determinations
One number for each entry, as −log10 of the molar value.

Sample answers from the record:
Cc1c(-c2ccccc2)nc2ccc(Br)cc2c1C(=O)NCC(c1ccccc1Cl)C(C)(C)C(=O)O (racemic) [Example 111]    7.05
Cc1c(-c2ccccc2)nc2ccc(Br)cc2c1C(=O)NCC(SCC(=O)O)c1ccccc1Cl (single isomer, unassigned; (+)) [Example 195]    8.10
Cc1c(-c2ccccc2)nc2ccc(Br)cc2c1C(=O)NC(C)C(CC(=O)O)c1ccccc1Cl (single isomer, unassigned; (+)) [Example 150]    6.02
Cc1c(-c2ccccc2)nc2ccc(Br)cc2c1C(=O)NCC(C(=O)O)c1ccccc1 (single isomer, unassigned; (-)) [Example 2]    6.80

Shifting focus to the compound that follows.
Give reported pIC50 value for Cc1c(-c2ccccc2)nc2ccc(Br)cc2c1C(=O)NCC(C(=O)O)c1ccc(F)cc1 (single isomer, unassigned) [Example 11] 6.33

###

target: FP receptor (Homo sapiens (Human))
measurement.description: In vitro test of inhibition of human FP receptor activity (PGF2α-induced calcium flux in FP-expressing CHEM1 cells)
condition.details: PGF2α-induced (2 nM) calcium flux in FP-expressing CHEM1 cells; some as mean values from multiple determinations
measured.property: log10(IC50) (log10 of the value in nM)
Form field - Quantity: IC50; Unit: nM; Scale: log10

Report log10(IC50) for each item below.
1. Cc1ccc(C(CNC(=O)c2c(C)c(-c3ccccc3)nc3ccc(Br)cc23)CC(=O)O)cc1 (single isomer, unassigned; (+)) [Example 91]
2. COc1ccccc1C(CNC(=O)c1c(C)c(-c2ccccc2)nc2ccc(Br)cc12)C(=O)O (single isomer, unassigned; (+)) [Example 9]
3. Cc1ccccc1C(CCC(=O)O)CNC(=O)c1c(C)c(-c2ccccc2)nc2ccc(Br)cc12 (single isomer, unassigned; (-)) [Example 161]
4. C#Cc1ccc2nc(-c3ccccc3)c(C)c(C(=O)NCC(CCC(=O)O)c3ccccc3Cl)c2c1 (single isomer, unassigned; (+)) [Example 220]
5. COc1ccccc1C(C)(CNC(=O)c1c(C)c(-c2ccccc2)nc2ccc(Br)cc12)C(=O)O (single isomer, unassigned; (-)) [Example 59]
6. Cc1c(-c2ccccc2)nc2ccc(Br)cc2c1C(=O)NCC(C)(CC(=O)O)c1ccccn1 (single isomer, unassigned; (-)) [Example 119]
7. Cc1c(-c2ccccc2)nc2ccc(Br)cc2c1C(=O)NCC(CCC(=O)O)c1c(F)cccc1Cl (single isomer, unassigned; (+)) [Example 159]
8. Cc1c(-c2ccccc2)nc2ccc(Br)cc2c1C(=O)NCC(CCC(=O)O)c1cccc(F)c1Cl (single isomer, unassigned; (-)) [Example 185]

2.66
0.86
0.91
0.90
2.59
2.18
1.38
0.59

Report log10(IC50) for each item below.
1. O=C(O)CCC(CNC(=O)c1c(Cl)c(-c2ccccc2)nc2ccc(Br)cc12)c1ccccc1C(F)(F)F (single isomer, unassigned; (+)) [Example 217]
2. Cc1c(-c2ccccc2)nc2ccc(Br)cc2c1C(=O)NCC(c1ccccc1Cl)C(C)(C)C(=O)O (single isomer, unassigned) [Example 112]
3. Cc1c(-c2ccccc2)nc2ccc(Br)cc2c1C(=O)NCC(C(=O)O)c1cccc(Cl)c1 (single isomer, unassigned; (+)) [Example 49]
4. Cc1c(-c2ccccc2)nc2ccc(Br)cc2c1C(=O)NCC(CCC(=O)O)c1c(F)cccc1C(F)(F)F (single isomer, unassigned; (-)) [Example 227]
5. Cc1cccc(C(CNC(=O)c2c(C)c(-c3ccccc3)nc3ccc(Br)cc23)CC(=O)O)c1 (single isomer, unassigned) [Example 95]
6. Cc1c(-c2ccccc2)nc2ccc(Br)cc2c1C(=O)NCC(CCC(=O)O)c1c(F)cccc1Cl (single isomer, unassigned; (-)) [Example 158]
7. Cc1c(-c2ccccc2)nc2ccc(Br)cc2c1C(=O)NCC(C)(CCC(=O)O)c1ccccc1Cl (single isomer, unassigned; (-)) [Example 155]
8. Cc1c(-c2ccccc2)nc2ccc(Br)cc2c1C(=O)NCC(CC(=O)O)c1ccccc1 (single isomer, unassigned; (-)) [Example 64]

1: 1.28; 2: 1.96; 3: 1.84; 4: 0.20; 5: 1.92; 6: 0.54; 7: 1.78; 8: 2.53

Report log10(IC50) for each item below.
1. Cc1c(-c2ccccc2)nc2ccc(Br)cc2c1C(=O)NCC(CC(=O)O)c1ccccc1 (racemic) [Example 63]
2. Cc1c(-c2ccccc2)nc2ccc(Br)cc2c1C(=O)NCC(CC(=O)O)c1ccccc1C(F)(F)F (racemic) [Example 105]
3. Cc1c(-c2ccccc2)nc2ccc(Br)cc2c1C(=O)NCC(CCC(=O)O)c1cc(F)cc(F)c1F (single isomer, unassigned) [Example 232]

1: 2.53; 2: 1.96; 3: 0.94

Report log10(IC50) for each item below.
1. O=C(O)CCC(CNC(=O)c1c(Cl)c(-c2ccccc2)nc2ccc(Br)cc12)c1ccccc1Cl (single isomer, unassigned; (-)) [Example 213]
2. COc1cccc(F)c1C(CNC(=O)c1c(C)c(-c2ccccc2)nc2ccc(Br)cc12)CC(=O)O (racemic) [Example 126]
3. COc1ccccc1C(CNC(=O)c1c(C)c(-c2ccccc2)nc2ccc(Br)cc12)C(F)(F)C(=O)O (racemic) [Example 141]
4. Cc1c(-c2ccccc2)nc2ccc(Br)cc2c1C(=O)NCC(C)(C(=O)O)c1cccc(C(F)(F)F)c1 (racemic) [Example 41]
5. Cc1c(-c2ccccc2)nc2ccc(Br)cc2c1C(=O)NCC(CCC(=O)O)c1c(Cl)ccc(F)c1F (single isomer, unassigned; (+)) [Example 202]

1. 0.45
2. 1.59
3. 1.38
4. 2.11
5. 0.79

###

target: FP receptor (Homo sapiens (Human))
measurement.description: In vitro test of inhibition of human FP receptor activity (PGF2α-induced calcium flux in FP-expressing CHEM1 cells)
condition.details: PGF2α-induced (2 nM) calcium flux in FP-expressing CHEM1 cells; some as mean values from multiple determinations
pIC50: −log10 of the molar value.
Would you please tag the item criterion met when its pIC50 is 7 or above, and criterion not met when it is below?

Study these solved cases before continuing.
COc1cccc(F)c1C(C)(CNC(=O)c1c(C)c(-c2ccccc2)nc2ccc(Br)cc12)CC(=O)O (single isomer, unassigned; (+)) [Example 143]    criterion met
Cc1c(-c2ccccc2)nc2ccc(Br)cc2c1C(=O)NCC(CCC(=O)O)c1ccccc1F (single isomer, unassigned; (+)) [Example 177]    criterion met
COc1ccccc1C(O)(CNC(=O)c1c(C)c(-c2ccccc2)nc2ccc(Br)cc12)C(=O)O (single isomer, unassigned; (-)) [Example 54]    criterion not met

hey, is pIC50 for this one >= 7? Cc1c(-c2ccccc2)nc2ccc(Br)cc2c1C(=O)NCC(C)(C(=O)O)c1ccccc1Cl (racemic) [Example 35] criterion not met

hey, is pIC50 for this one >= 7? Cc1c(-c2ccccc2)nc2ccc(Br)cc2c1C(=O)NCC(CCC(=O)O)c1ccccc1Cl (racemic) [Example 151] criterion met

hey, is pIC50 for this one >= 7? Cc1c(-c2ccccc2)nc2ccc(Br)cc2c1C(=O)NCC(C)(CCC(=O)O)c1cc(F)ccc1Cl (racemic) [Example 169] criterion met

hey, is pIC50 for this one >= 7? Cc1c(-c2ccccc2)nc2ccc(Br)cc2c1C(=O)NC(C)C(CC(=O)O)c1ccccc1Cl (racemic) [Example 148] criterion met

hey, is pIC50 for this one >= 7? COc1ccccc1[C@H](CNC(=O)c1c(C)c(-c2ccccc2)nc2ccc(Br)cc12)N1CCC(C(=O)O)C1 (some centres unmarked) criterion met

hey, is pIC50 for this one >= 7? Cc1c(-c2ccccc2)nc2ccc(Br)cc2c1C(=O)NCC(C)(CC(=O)O)c1ncccc1Cl (racemic) [Example 84] criterion met

hey, is pIC50 for this one >= 7? O=C(O)CCC(CNC(=O)c1c(Cl)c(-c2ccccc2)nc2ccc(Br)cc12)c1c(F)ccc(F)c1Cl (racemic) [Example 221] criterion met

hey, is pIC50 for this one >= 7? Cc1c(-c2ccccc2)nc2ccc(Br)cc2c1C(=O)NCC(CC(=O)O)c1ccc(Cl)cc1 (single isomer, unassigned; (-)) [Example 68] criterion not met

hey, is pIC50 for this one >= 7? Cc1c(-c2ccccc2)nc2ccc(Br)cc2c1C(=O)NCC(c1ccccc1Cl)S(=O)(=O)CC(=O)O (racemic) [Example 197] criterion met

hey, is pIC50 for this one >= 7? Cc1c(-c2ccccc2)nc2ccc(Br)cc2c1C(=O)NCC(C)(C(=O)O)c1ccccc1Cl (single isomer, unassigned; (-)) [Example 36] criterion not met

hey, is pIC50 for this one >= 7? Cc1c(-c2ccccc2)nc2ccc(Br)cc2c1C(=O)NCC(C)(C(=O)O)c1ccccc1 (single isomer, unassigned; (-)) [Example 14] criterion met

hey, is pIC50 for this one >= 7? COc1cccc(C(CNC(=O)c2c(C)c(-c3ccccc3)nc3ccc(Br)cc23)C(=O)O)c1 (single isomer, unassigned; (-)) [Example 45] criterion not met

hey, is pIC50 for this one >= 7? Cc1c(-c2ccccc2)nc2ccc(Br)cc2c1C(=O)NCC(c1ccccc1Cl)N(C)CC(=O)O (racemic) [Example 187] criterion met

hey, is pIC50 for this one >= 7? Cc1c(-c2ccccc2)nc2ccc(Br)cc2c1C(=O)NCC(CCC(=O)O)c1c(F)c(F)cc(F)c1F (racemic) [Example 228] criterion met

hey, is pIC50 for this one >= 7? Cc1c(-c2ccccc2)nc2ccc(Br)cc2c1C(=O)NCC(C)(CCCC(=O)O)c1ccccc1 (racemic) [Example 243] criterion met

hey, is pIC50 for this one >= 7? Cc1c(-c2ccccc2)nc2ccc(Br)cc2c1C(=O)NCC(CCC(=O)O)c1ccccc1F (centres unmarked) [compound 252] criterion met

hey, is pIC50 for this one >= 7? Cc1c(-c2ccccc2)nc2ccc(Br)cc2c1C(=O)NCC(CCC(=O)O)c1c(F)cccc1F (single isomer, unassigned; (+)) [Example 183] criterion met
